Each entry below carries its reported EC50.
molecular target: hGLP1R (Homo sapiens); construct: expressed in transfected cells; host or cells: HEK-293 cells carrying a CRE-luciferase reporter gene; assay: hGLP1R CreLuc reporter gene assay in 0.5% and 100% plasma; assay type: cell-based; details: CreLuc reporter gene assay, 0.5% human plasma; read-out: hGLP1R 0.5% hP
Sequence (P43220 24-463): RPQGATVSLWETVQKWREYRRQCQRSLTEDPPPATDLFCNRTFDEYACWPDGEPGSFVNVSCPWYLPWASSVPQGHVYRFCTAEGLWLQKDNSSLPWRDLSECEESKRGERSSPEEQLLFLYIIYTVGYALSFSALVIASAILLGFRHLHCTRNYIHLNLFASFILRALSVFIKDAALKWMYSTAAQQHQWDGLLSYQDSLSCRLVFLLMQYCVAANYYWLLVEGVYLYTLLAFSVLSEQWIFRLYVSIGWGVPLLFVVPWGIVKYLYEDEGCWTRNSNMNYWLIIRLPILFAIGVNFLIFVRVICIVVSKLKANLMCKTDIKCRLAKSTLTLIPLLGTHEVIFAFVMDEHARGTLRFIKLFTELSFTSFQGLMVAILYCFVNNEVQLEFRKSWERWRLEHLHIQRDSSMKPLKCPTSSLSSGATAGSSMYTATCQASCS
Starred links: 1 amine or outer side, 2 acyl side, 3 side chain; linkers in the order of their positions; H or OH if unused. Positions of bridges follow the written chain, without caps; N, C: chain ends. Non-standard residues stand in square brackets, D forms with d. Groups on a side chain read outwards from the residue. Chains are numbered I, II in the order given. No end group written: not given here. *: point of attachment. C20 diacid = O=C(O)CCCCCCCCCCCCCCCCCCC(=O)*; C18 diacid = O=C(O)CCCCCCCCCCCCCCCCC(=O)*; γGlu = O=C(O)[C@H](CCC(=O)[*:2])N[*:1]; εLys = N[C@@H](CCCCN[*:1])C(=O)[*:2]; AEEA = NCCOCCOCC(=O)O; Aib = CC(C)(N)C(=O)O

[
  {
    "substance": "H-Y[Aib]EGTFTSDYSI[Aib]LEKQAQ[Aib]EFVQWLIK([AEEA-AEEA-Glu-Glu-Glu-C18 diacid])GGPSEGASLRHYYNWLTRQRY-NH2 [Compound 157]",
    "unit symbol": "pM",
    "EC50": 350
  },
  {
    "substance": "H-Y[Aib]EGTFTSDYSI[Aib]LEKQAQ[Aib]AFVQWLIK([εLys-γGlu-γGlu-γGlu-γGlu-γGlu-γGlu-C20 diacid])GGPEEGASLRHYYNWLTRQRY-NH2 [Compound 89]",
    "unit symbol": "pM",
    "EC50": 250
  },
  {
    "substance": "H-Y[Aib]EGTFTSDYSI[Aib]LEKQAQ[Aib]AFVQWLIK([AEEA-AEEA-Glu-Glu-Glu-Glu-C18 diacid])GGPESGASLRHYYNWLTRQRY-NH2 [Compound 52]",
    "unit symbol": "pM",
    "EC50": 90
  },
  {
    "substance": "H-Y[Aib]EGTFTSDYSI[Aib]LEKQAQ[Aib]AFVEWLIK([εLys-γGlu-γGlu-γGlu-γGlu-γGlu-γGlu-C20 diacid])GGPSSGLSLRHYYNWLTRQRY-NH2 [Compound 107]",
    "unit symbol": "pM",
    "EC50": 130
  },
  {
    "substance": "H-Y[Aib]EGTFTSDYSI[Aib]LEKAAQ[Aib]AFVEWLIK([εLys-γGlu-γGlu-γGlu-γGlu-γGlu-γGlu-C20 diacid])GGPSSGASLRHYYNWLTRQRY-NH2 [Compound 136]",
    "unit symbol": "pM",
    "EC50": 320
  },
  {
    "substance": "H-Y[Aib]EGTFTSDYSI[Aib]LEKQAQ[Aib]AFIEWLIK([AEEA-AEEA-γGlu-γGlu-γGlu-γGlu-C20 diacid])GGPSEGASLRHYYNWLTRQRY-NH2 [Compound 231]",
    "unit symbol": "pM",
    "EC50": 140
  },
  {
    "substance": "H-Y[Aib]EGTFTSDYSI[Aib]LEKQAQ[Aib]AFVEWLIK([εLys-γGlu-γGlu-γGlu-γGlu-γGlu-γGlu-C20 diacid])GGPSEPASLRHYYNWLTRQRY-NH2 [Compound 233]",
    "unit symbol": "pM",
    "EC50": 170
  },
  {
    "substance": "I: Y[Aib]EGTFTSDYSI[Aib]LEKQAQ[Aib]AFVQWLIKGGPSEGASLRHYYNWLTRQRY-NH2 / II: {C20 diacid}-EEEEE[εLys] (amide I:28-II:C) [Compound 240]",
    "unit symbol": "pM",
    "EC50": 140
  },
  {
    "substance": "H-Y[Aib]EGTFTSDYSI[Aib]LEKQAE[Aib]AFVQWLIK([εLys-γGlu-γGlu-γGlu-γGlu-γGlu-γGlu-C18 diacid])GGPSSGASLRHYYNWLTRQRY-NH2 [Compound 51]",
    "unit symbol": "pM",
    "EC50": 150
  },
  {
    "substance": "Y[Aib]EGTFTSDYSI[Aib]LEKQAQ[Aib]AFVEWLIK([εLys-γGlu-γGlu-γGlu-γGlu-γGlu-C20 diacid])GGPESPASLRHYYNWLTRQRY-NH2 [Compound 70]",
    "unit symbol": "pM",
    "EC50": 300
  },
  {
    "substance": "H-Y[Aib]EGTFTSDYSI[Aib]LEKQAQ[Aib]AFVQWLIK([AEEA-AEEA-γGlu-γGlu-γGlu-γGlu-C18 diacid])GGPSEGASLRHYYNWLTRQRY-NH2 [Compound 270]",
    "unit symbol": "pM",
    "EC50": 70
  },
  {
    "substance": "H-Y[Aib]EGTFTSDYSI[Aib]LEKQAQ[Aib]AFVEWLIK([εLys-γGlu-γGlu-γGlu-γGlu-γGlu-γGlu-C20 diacid])GGPSSGASLRHYY[Aib]WLTRQRY-NH2 [Compound 213]",
    "unit symbol": "pM",
    "EC50": 160
  },
  {
    "substance": "H-Y[Aib]EGTFTSDYSI[Aib]LEKQAQ[Aib]AFVQWLIK([γGlu-γGlu-γGlu-γGlu-γGlu-C18 diacid])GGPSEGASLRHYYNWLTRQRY-NH2 [Compound 250]",
    "unit symbol": "pM",
    "EC50": 80
  },
  {
    "substance": "Y[Aib]EGTFTSDYSI[Aib]LEKQAQ[Aib]AFVEWLIK([AEEA-AEEA-γGlu-γGlu-γGlu-C18 diacid])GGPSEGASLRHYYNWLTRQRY-NH2 [Compound 299]",
    "unit symbol": "pM",
    "EC50": 80
  },
  {
    "substance": "H-Y[Aib]EGTFTSDYSI[Aib]LEKQAQ[Aib]EFVQWLIK([εLys-γGlu-γGlu-γGlu-γGlu-γGlu-γGlu-C18 diacid])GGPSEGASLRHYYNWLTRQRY-NH2 [Compound 153]",
    "unit symbol": "pM",
    "EC50": 250
  },
  {
    "substance": "H-Y[Aib]EGTFTSDYSI[Aib]LEKQAQ[Aib]AFVEWLIK([γGlu-γGlu-γGlu-γGlu-C18 diacid])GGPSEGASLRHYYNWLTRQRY-NH2 [Compound 294]",
    "unit symbol": "pM",
    "EC50": 80
  },
  {
    "substance": "H-Y[Aib]EGTFTSDYSI[Aib]LEKQAQ[Aib]AFVQWLIK([Glu-Glu-Glu-Glu-C18 diacid])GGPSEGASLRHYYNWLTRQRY-NH2 [Compound 281]",
    "unit symbol": "pM",
    "EC50": 70
  },
  {
    "substance": "H-Y[Aib]EGTFTSDYSI[Aib]LEKQAQ[Aib]EFVEWLIK([AEEA-AEEA-γGlu-γGlu-γGlu-γGlu-C20 diacid])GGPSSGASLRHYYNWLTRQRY-NH2 [Compound 205]",
    "unit symbol": "pM",
    "EC50": 440
  },
  {
    "substance": "H-Y[Aib]EGTFTSDYSI[Aib]LEKQAQ[Aib]AFVEWLIK([AEEA-AEEA-γGlu-γGlu-γGlu-γGlu-C18 diacid])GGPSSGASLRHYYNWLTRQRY-NH2 [Compound 254]",
    "unit symbol": "pM",
    "EC50": 70
  },
  {
    "substance": "H-Y[Aib]EGTFTSDYSI[Aib]LEKQAQ[Aib]AFVEWLIK([εLys-γGlu-γGlu-γGlu-γGlu-γGlu-γGlu-C20 diacid])GGPSSGASLRHYINWLTRQRY-NH2 [Compound 106]",
    "unit symbol": "pM",
    "EC50": 140
  }
]
